- Measurement description: growth modulation of vineyard yeast isolate – strain RM11-1a, OD600, basal, 24 h, primary screen (AID 1177);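 further: cultures grown under basal conditions with no added stressor; test concentration not given here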
- Details: S. cerevisiae RM11-1a growth, OD600, 24 h; higher = more signal, called active from +8 up or from −8 down
// reported z-score per item

{"Compound": "COC(=O)[C@]1(Cc2ccccc2CN=[N+]=[N-])N=C(c2ccc(OCCCO)cc2)O[C@@H]1c1ccccc1CN=[N+]=[N-]", "z-score": 2.92}
{"Compound": "COC(=O)c1ccc(OC)c(/C=C\\CC(CCc2ccccc2)OC(=O)c2ccncc2)c1 (stereo not drawn)", "z-score": -0.0204}
{"Compound": "COC(=O)[C@@]1(Cc2ccccc2)[C@H]2c3cc(C(=O)N(C)C)n(Cc4ccccn4)c3C[C@H]2CN1C(=O)c1ccccc1", "z-score": 0.781}
{"Compound": "COc1ccc([Si](C)(C)[C@H]2[C@H](CCn3cc(CCO)nn3)O[C@@]3(C(=O)N(Cc4cccc(N5C(=O)c6cccc7cccc5c67)c4)c4ccccc43)[C@@H]2C)cc1", "z-score": 2.16}
{"Compound": "CC1CC/C=C\\[C@H]2OC34C=CCN(Cc5ccccc5)C(=O)[C@H]3N(CCO)C(=O)[C@@H]4C2C(=O)O1 (stereo partly drawn)", "z-score": 0.606}
{"Compound": "O=C1C2C=CC(C(O)c3cccc4ccccc34)N(Nc3ccccc3)C2C(=O)N1c1ccccc1 (stereo not drawn)", "z-score": -0.0805}
{"Compound": "COCCOC(=O)N1C(=O)[C@@]2(c3cc(C#CCNC(N)=O)ccc31)[C@H](c1ccc(OCCO)cc1)N1[C@H](c3ccccc3)[C@H](c3ccccc3)OC(=O)[C@H]1[C@@H]2C(=O)N1CCN(c2ncccn2)CC1", "z-score": 2.05}
{"Compound": "COc1cc2c(cc1OC)CN(C(=O)[C@@H]1[C@H]3C(=O)O[C@H](c4ccccc4)[C@H](c4ccccc4)N3[C@H](c3ccc(O)cc3)[C@@]13C(=O)Nc1ccc(C#CCNC(N)=O)cc13)CC2", "z-score": 2.03}
{"Compound": "CC(C)CCC[C@@H](C)[C@H]1CC[C@@]2(C)C3=C(CC[C@]12C)[C@@]1(C)CC[C@H](OC(=O)C(C)(C)C)C(C)(C)C1CC3 (stereo partly drawn)", "z-score": -4.69}
{"Compound": "C=CC[C@]1(C(=O)N2CCOCC2)N=C(c2ccc(OCCCO)cc2)O[C@H]1c1ccccc1CN=[N+]=[N-]", "z-score": 0.301}
{"Compound": "COc1ccc(C(=O)Nc2ccc3c(c2)[C@]2(O[C@@H](CCO)[C@H]([Si](C)(C)c4ccc(OC)cc4)[C@H]2C)C(=O)N3Cc2ccccc2)cc1", "z-score": 2.47}
{"Compound": "COc1ccc(C(=O)Nc2ccc(CN3C(=O)[C@@]4(O[C@@H](CC(=O)N5Cc6ccccc6C[C@H]5CO)[C@H]([Si](C)(C)c5ccc(OC)cc5)[C@H]4C)c4ccccc43)cc2)cc1", "z-score": 1.23}
{"Compound": "CC(C)N1C(=O)c2ccccc2[C@](C)(C(=O)O)[C@@H]1c1ccc(CO)cc1", "z-score": 0.595}

---

// reported z-score per item
- Measurement description: viability profiling in RPMI8226 myeloma cells – cell-based, resazurin fluorescence, basal, 24 h, PK04 Diversity Set, profiling panel (AID 1180);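 further: RPMI8826 multiple myeloma cell line at 5000 cells per well; test concentration not given here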
- Details: higher = more signal

{"Molecule": "COC(=O)c1ccc(OC)c(/C=C\\CC(CCc2ccccc2)OC(=O)c2ccncc2)c1 (stereo not given)", "z-score": 1.24}
{"Molecule": "CN(C)CCCN1C(=O)[C@@]2(Cc3ccccc31)c1ccccc1C(=O)N(Cc1ccccc1)[C@H]2c1ccc(CO)cc1", "z-score": 0.246}
{"Molecule": "COc1ccccc1CN1C(=O)c2ccccc2[C@@H](C(=O)NCC(C)C)[C@@H]1c1ccc(CO)cc1", "z-score": 1.02}
{"Molecule": "CN(C)C(=O)[C@@]1(Cc2ccccc2N=[N+]=[N-])N=C(c2ccc(OCCCO)cc2)O[C@H]1c1ccccc1N=[N+]=[N-]", "z-score": -2.2}
{"Molecule": "COc1ccc(CCNC(=O)[C@@H]2c3ccccc3C(=O)N(Cc3ccccc3C(F)(F)F)[C@H]2c2ccc(CO)cc2)cc1", "z-score": 0.837}
{"Molecule": "CCOC(=O)C[C@H]1[C@H](OC(=O)c2ccc(C(=O)c3ccccc3)cc2)[C@@H](NC(=O)C2CCCCC2)c2cc(OCCCO)ccc2N1C(=O)Cc1ccc(OC)cc1", "z-score": -0.353}
{"Molecule": "COCCOC(=O)N1C(=O)[C@@]2(c3cc(C#CC4(O)CCCCCC4)ccc31)[C@H](C(=O)N1CCc3cc(OC)c(OC)cc3C1)[C@H]1C(=O)O[C@H](c3ccccc3)[C@H](c3ccccc3)N1[C@@H]2c1ccccc1OCCO", "z-score": 0.793}
{"Molecule": "O=C(C=C(CC(O)c1cccc(Cl)c1)OCCF)OCCF (stereo not given)", "z-score": 0.335}
{"Molecule": "COc1ccc([Si](C)(C)[C@H]2[C@H](CCn3cc(CCO)nn3)O[C@@]3(C(=O)N(Cc4cccc(N5C(=O)c6cccc7cccc5c67)c4)c4ccccc43)[C@@H]2C)cc1", "z-score": -5.82}
{"Molecule": "COCCCNC(=O)[C@@]1(Cc2ccccc2CN=[N+]=[N-])N=C(c2ccc(OCCCO)cc2)O[C@H]1c1ccccc1N=[N+]=[N-]", "z-score": -2.65}
{"Molecule": "CO[C@H]1O[C@H](CO)[C@@H](OC(=O)Nc2ccc(C(F)(F)F)cc2)[C@H](OC(=O)Nc2ccccc2)[C@H]1OC(=O)Nc1ccccc1", "z-score": -6.11}
{"Molecule": "CCCN1C(=O)[C@@]2(Cc3ccccc3)N=C(c3ccc(OCCCO)cc3)O[C@H]2c2ccccc21", "z-score": -1.57}
{"Molecule": "Cc1ccc(F)cc1S(=O)(=O)N[C@@H]1CCN(C(=O)c2ccc(OC(C)C)cc2)C1", "z-score": 0.339}
{"Molecule": "COCCCNC(=O)[C@@H]1c2ccccc2C(=O)N(c2ccc(C)cn2)[C@H]1c1ccc(CO)cc1", "z-score": 0.162}
{"Molecule": "N#Cc1ccc(NN2C(C(O)c3ccccc3)C=CC3C(=O)N(c4ccccc4)C(=O)C32)cc1 (stereo not given)", "z-score": -1.15}

---

- System: glycogen synthase kinase-3 (GSK3A per assay name; protocol says GSK3B)
- Measurement description: compounds binding glycogen synthase kinase-3 – biochemical, small-molecule microarray, 635 nm fluorescence, GSK3A, primary screen (AID 1103); further: the record names both GSK3A and GSK3B
- Details: fluorescence 635 nm, higher = more signal

{"Compound": "COCCOC(=O)N1C(=O)[C@@]2(c3cc(C#CCCO)ccc31)[C@H](C(=O)N1CCc3cc(OC)c(OC)cc3C1)[C@H]1C(=O)O[C@H](c3ccccc3)[C@H](c3ccccc3)N1[C@@H]2c1ccc(OCCO)cc1", "composite z-score": 1.2}
{"Compound": "COc1cc(NN2C(C(O)c3ccc(I)cc3)C=CC3C(=O)N(C)C(=O)C32)cc(OC)c1OC (stereo not drawn)", "composite z-score": -0.217}
{"Compound": "C[N+](C)(C)CCCCCCNC(=O)[C@@H]1C[C@@H]2C(=O)NCC(=O)N2[C@@H]1c1cccc(OCCO)c1", "composite z-score": 0.496}

---

// reported z-score per item
- Measurement description: JC-1 mitochondrial signal, unstimulated myeloma cells – cell-based, JC-1 fluorescence, RPMI8226, 24 h, 100 nL compound, profiling panel (AID 1169); further: test concentration not given here
- Details: JC-1 mitochondrial potential fluorescence, higher = more signal
Assay metric: z-score

{"Compound": "O=C1NC(=O)C2C1C=CC(C(O)c1ccc3c(c1)OCO3)N2Nc1ccc(Cl)cc1Cl (centres undefined)", "Numeric readout": -0.103}
{"Compound": "COCCCNC(=O)[C@@]1(Cc2ccccc2)COC(c2ccc(OCCCO)cc2)=N1", "Numeric readout": -0.367}
{"Compound": "C=C(/C(=C/C[C@@H](OC(C)=O)c1ccccc1OCCO)c1cnc2ccccc2c1)C(C)C", "Numeric readout": -0.0844}
{"Compound": "COC(=O)C(CC#Cc1ccc2c(c1)[C@]1(C(=O)N2)[C@H](C(=O)N2CCc3cc(OC)c(OC)cc3C2)[C@H]2C(=O)O[C@H](c3ccccc3)[C@H](c3ccccc3)N2[C@@H]1c1ccc(OCCO)cc1)C(=O)OC", "Numeric readout": -0.678}
{"Compound": "COC(=O)[C@@]1(Cc2ccccc2)[C@H]2c3cc(C(=O)N4CCCC4)n(Cc4ccc(OC(F)(F)F)cc4)c3C[C@H]2CN1C(=O)c1ccccc1", "Numeric readout": -0.717}
{"Compound": "CN(C)C(=O)[C@@]1(Cc2ccccc2N=[N+]=[N-])N=C(c2ccc(OCCCO)cc2)O[C@H]1c1ccccc1N=[N+]=[N-]", "Numeric readout": -1.26}
{"Compound": "CN(C)CCCCNC(=O)[C@H]1C[C@H]2C(=O)N[C@@H](CCCC[N+](C)(C)C)C(=O)N2[C@H]1c1cccc(OCCO)c1", "Numeric readout": -0.674}
{"Compound": "O=C1O[C@@H](c2ccccc2)[C@@H](c2ccccc2)N2[C@@H](c3ccc(O)cc3)[C@]3(C(=O)Nc4ccc(C#CC5=CCCCC5)cc43)[C@@H](C(=O)Nc3nc4ccccc4s3)[C@H]12", "Numeric readout": -0.745}
{"Compound": "C=C(C)[C@@H]1CC=C(C(O)C2C=CC3C(=O)N(C4CCCCC4)C(=O)C3N2Nc2ccc(OC)cc2)CC1 (some centres undefined)", "Numeric readout": -0.393}
{"Compound": "COC(=O)[C@@]1(Cc2ccccc2)[C@H]2c3cc(C(=O)N4CCCC4)n(Cc4ccccc4)c3C[C@H]2CN1C(=O)c1ccccc1", "Numeric readout": -0.737}
{"Compound": "CN(C)C(=O)[C@@]1(CCS(=O)(=O)c2ccccc2)N=C(c2ccc(OCCCO)cc2)O[C@H]1c1ccccc1CN=[N+]=[N-]", "Numeric readout": -0.114}
{"Compound": "C=CCNC(=O)[C@H]1[C@@H]2C(=O)O[C@@H](c3ccccc3)[C@@H](c3ccccc3)N2[C@@H](c2ccc(O)cc2)[C@]12C(=O)N(C(=O)OCCOC)c1ccc(C#CC3(O)CCCCCC3)cc12", "Numeric readout": -0.713}
{"Compound": "C[N+](C)(C)CCCC[C@@H]1NC(=O)[C@@H]2C[C@H](C(=O)O)[C@H](c3cccc(OCCO)c3)N2C1=O", "Numeric readout": 0.423}
{"Compound": "O=C1C2C=CC(C(O)c3cccc4ccccc34)N(Nc3ccccc3)C2C(=O)N1c1ccccc1 (centres undefined)", "Numeric readout": -0.408}

The measured values listed here are drawn from PubChem BioAssay.
